Data origin: PubChem BioAssay

# composite z-score per record follows
Target: Follistatin (Homo sapiens) (UniProt P19883)
Sequence (P19883 whole entry, looked up): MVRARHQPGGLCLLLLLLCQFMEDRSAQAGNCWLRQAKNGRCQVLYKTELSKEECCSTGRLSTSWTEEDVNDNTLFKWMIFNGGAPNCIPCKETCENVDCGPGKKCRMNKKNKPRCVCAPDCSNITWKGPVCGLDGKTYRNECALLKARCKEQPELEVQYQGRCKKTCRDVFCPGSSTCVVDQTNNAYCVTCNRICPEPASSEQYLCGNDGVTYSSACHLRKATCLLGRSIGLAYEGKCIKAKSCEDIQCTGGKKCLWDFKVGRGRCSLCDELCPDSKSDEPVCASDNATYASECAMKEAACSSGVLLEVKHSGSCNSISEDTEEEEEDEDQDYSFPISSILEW
Assay: FST protein binding to printed compounds – biochemical, small-molecule microarray, 635/667 nm fluorescence, primary screen (AID 1132)
Details: 635 nm fluorescence, higher = more signal
Please reply with the number alone, leaving off any unit.

COC(=O)[C@@]1(Cc2ccccc2N=[N+]=[N-])N=C(c2ccc(OCCCO)cc2)O[C@H]1c1ccccc1 0.465
C=C(COC)C(=O)CC[C@H](OC(=O)c1ccccc1-c1ccccc1C(=O)O)c1ccc(OCCO)cc1 1.42

We now examine a further compound.
Need composite z-score of CN(C)C(=O)[C@]1(Cc2ccccc2N=[N+]=[N-])N=C(c2ccc(OCCCO)cc2)O[C@@H]1c1ccccc1CN=[N+]=[N-] , thanks. 1.23
